# Study System: Hsp53 (Homo sapiens, UniProt P04637 1-393)
# Sequence (P04637 whole entry): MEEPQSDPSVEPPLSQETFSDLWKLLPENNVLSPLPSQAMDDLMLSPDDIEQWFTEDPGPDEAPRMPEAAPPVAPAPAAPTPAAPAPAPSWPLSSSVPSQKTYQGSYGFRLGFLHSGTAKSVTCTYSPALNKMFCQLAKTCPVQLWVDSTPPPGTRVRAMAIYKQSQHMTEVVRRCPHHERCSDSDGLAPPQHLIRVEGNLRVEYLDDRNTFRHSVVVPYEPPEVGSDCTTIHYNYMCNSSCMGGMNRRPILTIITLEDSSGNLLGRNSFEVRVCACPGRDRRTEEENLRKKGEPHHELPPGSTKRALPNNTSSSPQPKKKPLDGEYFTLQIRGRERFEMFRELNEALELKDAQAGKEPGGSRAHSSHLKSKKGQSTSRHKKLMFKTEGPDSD
# Method Notes: fluorescence anisotropy competition titration; 25 mM sodium phosphate (purification buffer pH 7.2), 225 mM NaCl, 10% v/v glycerol, 5 mM DTT, 0.2 mg/mL BSA, 22 C
# Measurement Context: protein: recombinant; tags: N-terminal 6xHis-lipoyl-TEV tag, cleaved; chain copies: 4
Value Type: Kd

## Task Please give measured Kd of the following entry: Ref competitor (dsDNA) DNA 1: CGCGGACATGTCCGGACATGTCCCGC DNA 2: GCGGGACATGTCCGGACATGTCCGCG
## Result 75.9 nM
